// data source = PubChem BioAssay (NCI)

# Test system: T-47D breast
# measurement notes: NCI-60 one-dose screen, 48 h
# details: 10 µM unless noted
This is part of a sample that, as a whole, favours compounds with a hit. Of some 83,000 tested, about 20% had one in any assay. Activity calls are given as the source filed them. How the source made its calls: active means growth percent below 10; inactive means the rest.
Outcome (select one): T for active, F for inactive

[
  {
    "molecule": "COc1ccc(/C=C/C(=O)c2ccc([N+](=O)[O-])cc2)cc1",
    "study system": "T-47D breast",
    "assigned label": "F"
  }
]

[in] Write down the call the test reported for this molecule. Item: COC(=O)[C@]12CC[C@@H](C(/C=C/c3cccnc3)=N/O)[C@@H]1[C@H]1CC[C@@H]3[C@@]4(C)CC(=C/c5cccnc5)/C(=N/O)C(C)(C)[C@@H]4CC[C@@]3(C)[C@]1(C)CC2
[out] F

[in] Write down the call the test reported for this molecule. Item: C=C1C(=O)O[C@H]2[C@H]1CC/C(COC(=O)NCCc1c[nH]c3ccccc13)=C\CC[C@@]1(C)O[C@@H]21
[out] T

[in] Write down the call the test reported for this molecule. Item: COc1ccc2c(c1)c(-c1nc(-c3c[nH]c4ncccc34)cs1)cn2CCNC(=O)OC(C)(C)C
[out] T

###

# System: COLO 205 colon
# measurement notes: NCI-60 one-dose screen, 48 h
# details: 10 µM unless noted
About 83,000 compounds went through this panel and 20% of them were active in at least one assay; those are over-represented in the sample as a whole. Active and inactive are the calls of the source. The calls were made as follows: active = growth percent below 10; inactive = the rest.
Outcome (select one): T (active), F (inactive)

Known results for compounds:
[
  {
    "compound": "NC1=NN(c2ccccc2)C(=O)/C1=C/c1ccc(Cl)cc1",
    "assigned label": "F"
  },
  {
    "compound": "Cc1cc(C)nc(NC(N)=NCCc2ccccc2)n1",
    "assigned label": "F"
  }
]

[in] Write down the call the test reported for this compound. Item: C=C(C)[C@@H]1CC[C@]2(c3nnc(-c4ccncc4)o3)CC[C@]3(C)[C@H](CC[C@@H]4[C@@]5(C)CCC(=O)NC(C)(C)[C@@H]5CC[C@]43C)[C@@H]12
[out] F

[in] Write down the call the test reported for this compound. Item: COc1ccc2c(c1)c(-c1nc(-c3c[nH]c4ncccc34)cs1)cn2CCN
[out] F

[in] Write down the call the test reported for this compound. Item: O=c1[nH]c2c3ccncc3cc(-c3cccc(Cl)c3)c2c2cnccc12
[out] F

[in] Write down the call the test reported for this compound. Item: O=S(=O)(NCCNc1cc(-c2cn(-c3ccccc3)nc2-c2cccc(O)c2)ccn1)c1ccc(Cl)cc1
[out] T

[in] Write down the call the test reported for this compound. Item: CC1(C)NC2=C(C(Nc3cccnc3)N1)C(c1ccc([N+](=O)[O-])cc1)C(C(=O)c1ccc(N=[N+]=[N-])cc1)O2 (stereo not given)
[out] F

[in] Write down the call the test reported for this compound. Item: Cn1cc(-c2csc(-c3cn(CCCN4CCCCC4)c4ccc(F)cc34)n2)c2cccnc21
[out] F

[in] Write down the call the test reported for this compound. Item: Cc1csc(-c2ccc3c(c2)COC3(CCCN(C)C)c2ccc(F)cc2)c1 (stereo not given)
[out] T

[in] Write down the call the test reported for this compound. Item: NCCn1cc(-c2nc(-c3c[nH]c4ncccc34)cs2)c2cc(Br)ccc21
[out] T

[in] Write down the call the test reported for this compound. Item: Cn1cc(-c2csc(-c3c[nH]c4ccc(F)cc34)n2)c2cccnc21
[out] F

###

Field: growth. Provide a value for each of the molecules that follow.
# System: BT-549 breast
# measurement notes: NCI-60 one-dose screen, 48 h (100 = growth as untreated, 0 = no growth, -100 = all killed)
# details: 10 µM unless noted
# Protocol: Growth inhibition of the BT-549 human tumor cell line is measured as a screen for anti-cancer activity. Cells are grown in 96 well plates and exposed to the test compound for 48 hours. Compounds are tested at a single concentration, which is 10^-5 M for most compounds. The reported endpoint is percent growth (GI% or GIPRCNT), where numbers from 0 - 100% represent growth inhibition, and numbers from -100% - 0 represent cell death. For example, a value of 40 represents 60% growth inhibition. […]
About 83,000 compounds went through this panel and 20% of them were active in at least one assay; those are over-represented in the sample as a whole. Calls of active or inactive are those of the source. How the source made its calls: active means growth percent below 10; inactive means the rest.

Study these solved cases before continuing.
[
  {
    "molecule": "CC(=O)c1c(C)[nH]c(-c2nc3ccc(N4CCN(C)CC4)cc3[nH]2)c1-c1ccc2c(c1)OCCO2",
    "study system": "BT-549 breast",
    "observed result": "63% (inactive)"
  },
  {
    "molecule": "Cn1cc(-c2nc(-c3c[nH]c4ncccc34)cs2)c2cc(Br)ccc21",
    "study system": "BT-549 breast",
    "observed result": "99.8% (inactive)"
  },
  {
    "molecule": "CN1CCN(CCOc2ccc(-c3cnc4c(-c5ccccc5F)cnn4c3)cc2)CC1",
    "study system": "BT-549 breast",
    "observed result": "69.9% (inactive)"
  },
  {
    "molecule": "CC(=O)OCCCCCCn1c2ccccc2c2c3c(c4c5ccccc5n(C)c4c21)C(=O)N(O)C3=O",
    "study system": "BT-549 breast",
    "observed result": "69.2% (inactive)"
  },
  {
    "molecule": "CN1CCN(c2nc(-c3csc(-c4cccs4)n3)cc3ccccc23)CC1",
    "study system": "BT-549 breast",
    "observed result": "70.4% (inactive)"
  }
]

Look at each molecule and report its growth.
1. COc1cccc(NC(=O)c2sc3nc4c(cc3c2N)C(=O)CCC4)c1
2. NNC(=O)c1nc2ccccc2[nH]1

[out]
["29.9% (inactive)", "95.4% (inactive)"]

Look at each molecule and report its growth.
1. O=c1c(CNc2ccc(S(=O)(=O)Nc3ncccn3)cc2)coc2ccccc12
2. C=C1C(=O)O[C@H]2[C@H]1CC/C(COC(=O)NCCc1c[nH]c3ccccc13)=C\CC[C@@]1(C)O[C@@H]21
3. Cc1ccc(NC2CC(=O)N(c3c(C)cc(C)cc3C)C2=O)c(C)c1 (stereo not given)

[out]
["93.6% (inactive)", "-12.9% (active)", "113% (inactive)"]

###

# Tested on: KM12 colon
# measurement notes: NCI-60 one-dose screen, 48 h
# details: 10 µM unless noted
Compounds without any hit were thinned out: in the full panel of roughly 83,000, 20% have a hit. Activity calls are given as the source filed them. The calls were made as follows: active = growth percent below 10; inactive = the rest.
Outcome (select one): true = active, false = inactive

Known results for molecules:
[
  {
    "molecule": "O=C1c2cc3c(cc2-c2c1c1ccc(Cl)cc1c(=O)n2C[C@H](O)[C@@H](O)[C@H](O)CO)OCO3",
    "assigned label": "true"
  },
  {
    "molecule": "O=C(NO)c1ccc(Cn2c(=O)n(-c3ccccc3)c(=O)c3ccccc32)cc1",
    "assigned label": "true"
  },
  {
    "molecule": "CC1(C)C(=O)/C(=C\\c2ccco2)C[C@]2(C)[C@H]3CC[C@@H]4[C@@H](C(=O)/C=C/c5ccco5)CC[C@@]4(C)[C@]3(C)CC[C@@H]12",
    "assigned label": "false"
  },
  {
    "molecule": "COc1cc(-c2cc3ncccc3c3nc(OCCN(C)C)c4cccnc4c23)cc(OC)c1OC",
    "assigned label": "false"
  }
]

[in] Write down the call the test reported for this molecule. Item: Cn1nc(-c2ccccc2)c2c(-c3ccccc3)onc2c1=O
[out] false

[in] Write down the call the test reported for this molecule. Item: CCSc1ncnc2c1ncn2C1OC(CO)C(O)C1O (centres undefined)
[out] false

[in] Write down the call the test reported for this molecule. Item: O=S(=O)(NCCCNc1cc(-c2cn(-c3ccccc3)nc2-c2cccc(O)c2)ccn1)c1ccc(F)cc1
[out] false

[in] Write down the call the test reported for this molecule. Item: NCCn1cc(-c2nc(-c3c[nH]c4ncccc34)cs2)c2ccccc21
[out] false

[in] Write down the call the test reported for this molecule. Item: O=C(O)c1cccc2c1Cc1cc([N+](=O)[O-])ccc1-2
[out] false

###

# System: SK-MEL-2 melanoma
# measurement notes: NCI-60 one-dose screen, 48 h (100 = growth as untreated, 0 = no growth, -100 = all killed)
# details: 10 µM unless noted
Compounds without any hit were thinned out: in the full panel of roughly 83,000, 20% have a hit.
Field: growth. Provide a value for each of the molecules that follow.
Answers are plain numbers, in %.

Study these solved cases before continuing.
[
  {
    "molecule": "COc1ccc(C(=O)c2ccc(C)cc2)c(OC)c1OC",
    "study system": "SK-MEL-2 melanoma",
    "growth [%]": 60.3
  },
  {
    "molecule": "CCN(CC)CCCCCCNc1ccnc2cc(Cl)ccc12",
    "study system": "SK-MEL-2 melanoma",
    "growth [%]": 128
  },
  {
    "molecule": "COc1ccc(C2NC(=O)Nc3ccccc32)c(OC)c1 (stereo unspecified)",
    "study system": "SK-MEL-2 melanoma",
    "growth [%]": 102
  },
  {
    "molecule": "O=C1CNCCN1",
    "study system": "SK-MEL-2 melanoma",
    "growth [%]": 106
  },
  {
    "molecule": "Cc1ccc(-c2nc([P+](c3ccccc3)(c3ccccc3)c3ccccc3)c(N3C[C@H]4C[C@H](C3)c3cccc(=O)n3C4)o2)cc1",
    "study system": "SK-MEL-2 melanoma",
    "growth [%]": 87.7
  }
]

[in] Under SK-MEL-2 melanoma: growth value of COc1ccc(/C=C/C(=O)NCC(C)O)cc1 (stereo unspecified) ?
[out] 93.3
